test system: L. monocytogenes ATCC 19115; assay: Antimicrobial activity, tube dilution method; type: cell-based, Listeria monocytogenes; conditions: 24 h at 37 °C, four repeated experiments
property.label: MIC (mM)
Field format: number, assumed mM, no unit text.

compound | readout.value
CCC(C)C(N)C(=O)[O-].C[N+](C)(C)CCO (centres unmarked) [[Ch][Ile]] | 46.9
C[N+](C)(C)CCO.NCC(=O)[O-] [[Ch][Gly]] | 250

# get_value(readout= MIC, system= L. monocytogenes ATCC 19115) for C[C@@H](O)[C@H](N)C(=O)[O-].C[N+](C)(C)CCO [[Ch][Thr]]
93.8

I'm curious: which MIC was measured for C[N+](C)(C)CCO.N[C@@H](Cc1cnc[nH]1)C(=O)[O-] [[Ch][His]] tested on L. monocytogenes ATCC 19115?
93.8

Find the measured MIC: item C[N+](C)(C)CCO.N[C@@H](Cc1ccccc1)C(=O)[O-] [[Ch][Phe]] , target or system L. monocytogenes ATCC 19115.
46.9

---

test system: E. coli ATCC 8739; test: Antimicrobial activity, tube dilution method; format: cell-based, Escherichia coli; details: 24 h at 37 °C, four repeated experiments
Reported MIC values for a set of molecules
Please give a number only; it is taken to be in mM.

Solved cases (6 shown):
molecule | property.label | readout.value
C[N+](C)(C)CCO.N[C@@H](Cc1ccccc1)C(=O)[O-] [[Ch][Phe]] | MIC | 31.3
C[C@H](N)C(=O)[O-].C[N+](C)(C)CCO [[Ch][Ala]] | MIC | 46.9
C[N+](C)(C)CCO.O=C([O-])[C@@H]1CCCN1 [[Ch][Pro]] | MIC | 46.9
CC(C)[C@H](N)C(=O)O [[Ch][Val]] | MIC | 46.9
C[N+](C)(C)CCO.NCCCC[C@H](N)C(=O)[O-] [[Ch][Lys]] | MIC | 31.3
C[N+](C)(C)CCO.N=C(N)NCCC[C@H](N)C(=O)[O-] [[Ch][Arg]] | MIC | 46.9

So what's the measured MIC for this one? CSCC[C@H](N)C(=O)[O-].C[N+](C)(C)CCO [[Ch][Met]]
31.3

Entry C[N+](C)(C)CCO.C[N+](C)(C)CCO.N[C@@H](CC(=O)[O-])C(=O)[O-] [[Ch][Asp]] : reported MIC = ?
500

---

test system: L. monocytogenes ATCC 19115; assay: Antimicrobial activity, tube dilution method; format: cell-based, Listeria monocytogenes; settings: 24 h at 37 °C, four repeated experiments
property.label: MIC
Kindly write the number and append the unit.

Examples from the recorded data:
compound | assayed.target | MIC
C[N+](C)(C)CCO.NC(=O)CC[C@H](N)C(=O)[O-] [[Ch][Gln]] | L. monocytogenes ATCC 19115 | 188 mM
C[N+](C)(C)CCO.C[N+](C)(C)CCO.N[C@@H](CC(=O)[O-])C(=O)[O-] [[Ch][Asp]] | L. monocytogenes ATCC 19115 | 500 mM
CC(=O)[O-].C[N+](C)(C)CCO [[Ch][AcO], Cholinium acetate, reference compound] | L. monocytogenes ATCC 19115 | 500 mM
CSCC[C@H](N)C(=O)[O-].C[N+](C)(C)CCO [[Ch][Met]] | L. monocytogenes ATCC 19115 | 125 mM

Moving on to another compound below.
Report MIC for C[C@H](N)C(=O)[O-].C[N+](C)(C)CCO [[Ch][Ala]] please.
188 mM

These data points were gathered from paper PMC3598705.
